Organism: Homo sapiens
Experiment: Selectivity ratio, ratio of IC50 for 20S proteasome beta 5c (unknown origin) to IC50 for human 20S proteasome beta 1i

# Chemical smiles, Ratio IC50
measured = [
    ("CC(C)C[C@H](NC(=O)c1cn(Cc2ccccc2)nn1)B(O)O", "1300 to 3400"),
    ("CC(C)C[C@H](NC(=O)c1cn(C2CCCCC2)nn1)B(O)O", "1300 to 3400"),
    ("CC(C)C[C@H](NC(=O)c1cn(-c2ccccc2)nn1)B(O)O", "1300 to 3400"),
]

====

Species on record: Homo sapiens
Assay: Selectivity ratio, ratio of IC50 for 20S proteasome beta 5c (unknown origin) to IC50 for human 20S proteasome beta 5i
Reported Ratio IC50 is given for each of the following compounds.
Attribute measured: Ratio IC50

# Chemical smiles, Result
records = [
    ("C=CC(=O)N(CC(=O)N[C@@H](Cc1ccc(C)cc1C)B(O)O)c1ccccc1F", "283 to 296"),
    ("COc1ccc(C[C@H](NC(=O)[C@H](C)NC(=O)CN2CCOCC2)C(=O)N[C@@H](Cc2ccccc2)C(=O)[C@@]2(C)CO2)cc1", "9 to 20"),
    ("CC(C)C[C@H](NC(=O)c1cn(Cc2ccccc2)nn1)B(O)O", "220 to 710"),
]
